B1: TPR t1 (parent)
chain: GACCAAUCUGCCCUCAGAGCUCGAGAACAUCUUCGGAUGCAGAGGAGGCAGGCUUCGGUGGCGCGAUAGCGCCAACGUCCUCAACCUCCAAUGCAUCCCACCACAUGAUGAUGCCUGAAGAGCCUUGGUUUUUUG

Variants of: B1
assay-overview: polymerase ribozyme fitness, log enrichment relative to wild type (log ratio); higher = more active; in vitro selection for triplet polymerase activity
Note: every record was labeled by where its polymerase ribozyme fitness (log ratio) sits among Low = under -4, Mid = from -4 up to -2, High = -2 and over

Solved cases (3 shown):
>  <mutation-descriptor>
C15A C40A

>  <class-label>
Mid

$$$$
>  <mutation-descriptor>
C34A C97A C115G

>  <class-label>
Low

$$$$
>  <mutation-descriptor>
A105U G135C

>  <class-label>
Mid

$$$$

Prompt: Looking at A2C U33A C97A U106A G120C U126A , which class would you pick?
Completion: Low

Prompt: Looking at G36C C49G C102A U125A , which class would you pick?
Completion: Low

Prompt: Looking at G71U A103G , which class would you pick?
Completion: Low

Prompt: Looking at C3U C73U A100C , which class would you pick?
Completion: High
